# TARGET_UNDER_TEST: von Hippel-Lindau disease tumor suppressor/Son of sevenless homolog 1 (Homo sapiens, UniProt Q07889+P40337)
# Sequence (P40337 whole entry, looked up): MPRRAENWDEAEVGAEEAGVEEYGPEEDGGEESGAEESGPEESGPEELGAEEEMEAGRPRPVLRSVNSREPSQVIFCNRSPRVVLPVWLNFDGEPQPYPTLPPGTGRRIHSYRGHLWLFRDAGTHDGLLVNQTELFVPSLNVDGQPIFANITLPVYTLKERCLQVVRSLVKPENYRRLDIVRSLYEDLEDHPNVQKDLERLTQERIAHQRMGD
# Sequence (Q07889 whole entry, looked up): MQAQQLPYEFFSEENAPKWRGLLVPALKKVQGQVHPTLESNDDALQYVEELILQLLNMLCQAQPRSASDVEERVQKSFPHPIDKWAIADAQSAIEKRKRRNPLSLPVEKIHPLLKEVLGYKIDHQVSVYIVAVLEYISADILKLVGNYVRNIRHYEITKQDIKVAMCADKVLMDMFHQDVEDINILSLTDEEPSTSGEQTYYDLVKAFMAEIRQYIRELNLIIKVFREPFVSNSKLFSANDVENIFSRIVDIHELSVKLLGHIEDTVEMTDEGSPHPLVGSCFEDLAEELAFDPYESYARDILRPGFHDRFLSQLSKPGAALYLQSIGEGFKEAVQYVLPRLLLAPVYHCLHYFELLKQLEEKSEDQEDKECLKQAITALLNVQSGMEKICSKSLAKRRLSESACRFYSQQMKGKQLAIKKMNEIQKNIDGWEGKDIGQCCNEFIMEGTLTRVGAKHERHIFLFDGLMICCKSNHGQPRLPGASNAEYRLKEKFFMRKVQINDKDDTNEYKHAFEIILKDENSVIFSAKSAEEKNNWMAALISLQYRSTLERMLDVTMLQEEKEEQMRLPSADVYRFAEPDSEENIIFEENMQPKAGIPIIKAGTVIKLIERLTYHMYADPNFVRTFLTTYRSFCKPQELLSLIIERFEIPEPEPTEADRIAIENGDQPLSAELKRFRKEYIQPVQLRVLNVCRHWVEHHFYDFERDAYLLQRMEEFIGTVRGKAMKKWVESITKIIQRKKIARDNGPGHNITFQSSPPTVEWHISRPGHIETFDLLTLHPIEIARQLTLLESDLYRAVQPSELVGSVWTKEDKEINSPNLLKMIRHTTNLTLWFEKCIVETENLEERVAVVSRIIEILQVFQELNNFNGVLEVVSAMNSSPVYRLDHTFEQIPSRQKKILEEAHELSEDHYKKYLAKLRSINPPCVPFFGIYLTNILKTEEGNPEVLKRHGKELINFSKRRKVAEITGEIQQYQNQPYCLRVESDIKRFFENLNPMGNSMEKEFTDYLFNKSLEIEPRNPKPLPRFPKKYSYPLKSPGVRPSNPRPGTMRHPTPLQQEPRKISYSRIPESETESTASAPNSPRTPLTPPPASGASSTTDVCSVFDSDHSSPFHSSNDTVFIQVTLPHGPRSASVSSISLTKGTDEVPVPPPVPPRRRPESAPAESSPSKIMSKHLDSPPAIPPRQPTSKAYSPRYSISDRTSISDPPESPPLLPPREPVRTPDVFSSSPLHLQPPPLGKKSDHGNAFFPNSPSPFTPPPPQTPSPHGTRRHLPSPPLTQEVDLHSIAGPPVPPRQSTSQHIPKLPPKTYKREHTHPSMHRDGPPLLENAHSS
# PROTOCOL_TEXT: Protac activity at VHL/SOS1 in human K562 cells assessed as SOS1 degradation at 10 uM by Western blotting analysis relative to control
# Type: cell-based
PROPERTY_NAME: Activity
Respond with the figure and its unit, in that order.

// recorded Activity for CNCc1ccccc1-c1csc([C@@H](C)Nc2nc(C)nc3cc(OC)c(C4=CCN(C(=O)CCC(=O)N[C@H](C(=O)N5C[C@H](O)C[C@H]5C(=O)NCc5ccc(-c6scnc6C)cc5)C(C)(C)C)CC4)cc23)c1 : 6.7%

// recorded Activity for CNCc1ccccc1-c1csc([C@@H](C)Nc2nc(C)nc3cc(OC)c(OCCCCCC(=O)N[C@H](C(=O)N4C[C@H](O)C[C@H]4C(=O)NCc4ccc(-c5scnc5C)cc4)C(C)(C)C)cc23)c1 : 0%

// recorded Activity for COc1cc2nc(C)nc(N[C@H](C)c3cc(-c4ccccc4CNCCCCCCCCC(=O)N[C@H](C(=O)N4C[C@H](O)C[C@H]4C(=O)NCc4ccc(-c5scnc5C)cc4)C(C)(C)C)cs3)c2cc1OC : 31.6%

// recorded Activity for COc1cc2nc(C)nc(N[C@H](C)c3cc(N)cc(C(F)(F)F)c3)c2cc1OCCCCC(=O)N[C@H](C(=O)N1C[C@H](O)C[C@H]1C(=O)NCc1ccc(-c2scnc2C)cc1)C(C)(C)C : 93.3%

// recorded Activity for COc1cc2nc(C)nc(N[C@H](C)c3cc(-c4ccccc4CNCCCCCC(=O)N[C@H](C(=O)N4C[C@H](O)C[C@H]4C(=O)NCc4ccc(-c5scnc5C)cc4)C(C)(C)C)cs3)c2cc1OC : 0%

###

Can you tell me Activity for the items I'm about to list?
# TARGET_UNDER_TEST: von Hippel-Lindau disease tumor suppressor/Son of sevenless homolog 1 (Homo sapiens, UniProt Q07889+P40337)
# PROTOCOL_TEXT: Protac activity at VHL/SOS1 in human PANC-1 cells assessed as SOS1 degradation at 10 uM by Western blotting analysis relative to control
# Type: cell-based
Numbers only; they are read as %.

// recorded Activity for CNCc1ccccc1-c1csc([C@@H](C)Nc2nc(C)nc3cc(OC)c(C4=CCN(C(=O)CCCC(=O)N[C@H](C(=O)N5C[C@H](O)C[C@H]5C(=O)NCc5ccc(-c6scnc6C)cc5)C(C)(C)C)CC4)cc23)c1 : 0

// recorded Activity for COc1cc2nc(C)nc(N[C@H](C)c3cc(N)cc(C(F)(F)F)c3)c2cc1OCCCCCCCCC(=O)N[C@H](C(=O)N1C[C@H](O)C[C@H]1C(=O)NCc1ccc(-c2scnc2C)cc1)C(C)(C)C : 21.5

// recorded Activity for COc1cc2nc(C)nc(N[C@H](C)c3cc(-c4ccccc4CNCCC4CCN(C(=O)CC(=O)N[C@H](C(=O)N5C[C@H](O)C[C@H]5C(=O)NCc5ccc(-c6scnc6C)cc5)C(C)(C)C)CC4)cs3)c2cc1OC : 0

// recorded Activity for CNCc1ccccc1-c1csc([C@@H](C)Nc2nc(C)nc3cc(OC)c(OCCCCCC(=O)N[C@H](C(=O)N4C[C@H](O)C[C@H]4C(=O)NCc4ccc(-c5scnc5C)cc4)C(C)(C)C)cc23)c1 : 0

// recorded Activity for CNCc1ccccc1-c1csc([C@@H](C)Nc2nc(C)nc3cc(OC)c(OCCCCC(=O)N[C@H](C(=O)N4C[C@H](O)C[C@H]4C(=O)NCc4ccc(-c5scnc5C)cc4)C(C)(C)C)cc23)c1 : 0

// recorded Activity for COc1cc2nc(C)nc(N[C@H](C)c3cc(-c4ccccc4CNCCCCCC(=O)N[C@H](C(=O)N4C[C@H](O)C[C@H]4C(=O)NCc4ccc(-c5scnc5C)cc4)C(C)(C)C)cs3)c2cc1OC : 11

// recorded Activity for COc1cc2nc(C)nc(N[C@H](C)c3cc(N)cc(C(F)(F)F)c3)c2cc1OCCCCCCCCCC(=O)N[C@H](C(=O)N1C[C@H](O)C[C@H]1C(=O)NCc1ccc(-c2scnc2C)cc1)C(C)(C)C : 0

// recorded Activity for COc1cc2nc(C)nc(N[C@H](C)c3cc(-c4ccccc4CNCC4CCN(CC5CCN(C(=O)CC(=O)N[C@H](C(=O)N6C[C@H](O)C[C@H]6C(=O)NCc6ccc(-c7scnc7C)cc6)C(C)(C)C)CC5)CC4)cs3)c2cc1OC : 19.6

// recorded Activity for COc1cc2nc(C)nc(N[C@H](C)c3cc(-c4ccccc4CNCCCCCCC(=O)N[C@H](C(=O)N4C[C@H](O)C[C@H]4C(=O)NCc4ccc(-c5scnc5C)cc4)C(C)(C)C)cs3)c2cc1OC : 75.1

// recorded Activity for COc1cc2nc(C)nc(N[C@H](C)c3cc(N)cc(C(F)(F)F)c3)c2cc1OCCCCCCCC(=O)N[C@H](C(=O)N1C[C@H](O)C[C@H]1C(=O)NCc1ccc(-c2scnc2C)cc1)C(C)(C)C : 0

// recorded Activity for COc1cc2nc(C)nc(N[C@H](C)c3cc(-c4ccccc4CNCCCCCCCC(=O)N[C@H](C(=O)N4C[C@H](O)C[C@H]4C(=O)NCc4ccc(-c5scnc5C)cc4)C(C)(C)C)cs3)c2cc1OC : 12.7

// recorded Activity for COc1cc2nc(C)nc(N[C@H](C)c3cc(N)cc(C(F)(F)F)c3)c2cc1OCCCCCCC(=O)N[C@H](C(=O)N1C[C@H](O)C[C@H]1C(=O)NCc1ccc(-c2scnc2C)cc1)C(C)(C)C : 3.4

// recorded Activity for CNCc1ccccc1-c1csc([C@@H](C)Nc2nc(C)nc3cc(OC)c(C4=CCN(C(=O)CCC(=O)N[C@H](C(=O)N5C[C@H](O)C[C@H]5C(=O)NCc5ccc(-c6scnc6C)cc5)C(C)(C)C)CC4)cc23)c1 : 0

// recorded Activity for COc1cc2nc(C)nc(N[C@H](C)c3cc(N)cc(C(F)(F)F)c3)c2cc1OCCCCC(=O)N[C@H](C(=O)N1C[C@H](O)C[C@H]1C(=O)NCc1ccc(-c2scnc2C)cc1)C(C)(C)C : 93.9

// recorded Activity for COc1cc2nc(C)nc(N[C@H](C)c3cc(-c4ccccc4CNCCCCCCCCCC(=O)N[C@H](C(=O)N4C[C@H](O)C[C@H]4C(=O)NCc4ccc(-c5scnc5C)cc4)C(C)(C)C)cs3)c2cc1OC : 5.8

// recorded Activity for COc1cc2nc(C)nc(N[C@H](C)c3cc(N)cc(C(F)(F)F)c3)c2cc1OCCCC(=O)N[C@H](C(=O)N1C[C@H](O)C[C@H]1C(=O)NCc1ccc(-c2scnc2C)cc1)C(C)(C)C : 0

// recorded Activity for CNCc1ccccc1-c1csc([C@@H](C)Nc2nc(C)nc3cc(OC)c(OCCCCCCC(=O)N[C@H](C(=O)N4C[C@H](O)C[C@H]4C(=O)NCc4ccc(-c5scnc5C)cc4)C(C)(C)C)cc23)c1 : 0

// recorded Activity for COc1cc2nc(C)nc(N[C@H](C)c3cc(N)cc(C(F)(F)F)c3)c2cc1OCCCCCC(=O)N[C@H](C(=O)N1C[C@H](O)C[C@H]1C(=O)NCc1ccc(-c2scnc2C)cc1)C(C)(C)C : 0

// recorded Activity for COc1cc2nc(C)nc(N[C@H](C)c3cc(-c4ccccc4CNCC4CCN(C(=O)CC(=O)N[C@H](C(=O)N5C[C@H](O)C[C@H]5C(=O)NCc5ccc(-c6scnc6C)cc5)C(C)(C)C)CC4)cs3)c2cc1OC : 0

// recorded Activity for COc1cc2nc(C)nc(N[C@H](C)c3cc(-c4ccccc4CNCCCCCCCCC(=O)N[C@H](C(=O)N4C[C@H](O)C[C@H]4C(=O)NCc4ccc(-c5scnc5C)cc4)C(C)(C)C)cs3)c2cc1OC : 24.4

###

# TARGET_UNDER_TEST: von Hippel-Lindau disease tumor suppressor/Son of sevenless homolog 1 (Homo sapiens, UniProt Q07889+P40337)
# PROTOCOL_TEXT: Protac activity at VHL/SOS1 in human PANC-1 cells assessed as SOS1 degradation at 10 uM by Western blotting analysis relative to control
# Type: cell-based
Can you tell me Activity for the items I'm about to list?
Numbers only; they are read as %.

// recorded Activity for CNCc1ccccc1-c1csc([C@@H](C)Nc2nc(C)nc3cc(OC)c(OCCCCCCCCC(=O)N[C@H](C(=O)N4C[C@H](O)C[C@H]4C(=O)NCc4ccc(-c5scnc5C)cc4)C(C)(C)C)cc23)c1 : 0

// recorded Activity for CNCc1ccccc1-c1csc([C@@H](C)Nc2nc(C)nc3cc(OC)c(OCCCCCCCC(=O)N[C@H](C(=O)N4C[C@H](O)C[C@H]4C(=O)NCc4ccc(-c5scnc5C)cc4)C(C)(C)C)cc23)c1 : 14.3

// recorded Activity for COc1cc2nc(C)nc(N[C@H](C)c3cc(-c4ccccc4CNCCCN4CCC(C(=O)N[C@H](C(=O)N5C[C@H](O)C[C@H]5C(=O)NCc5ccc(-c6scnc6C)cc5)C(C)(C)C)CC4)cs3)c2cc1OC : 49.8

// recorded Activity for CNCc1ccccc1-c1csc([C@@H](C)Nc2nc(C)nc3cc(OC)c(C4=CCN(C(=O)CCCCC(=O)N[C@H](C(=O)N5C[C@H](O)C[C@H]5C(=O)NCc5ccc(-c6scnc6C)cc5)C(C)(C)C)CC4)cc23)c1 : 30.2
